Attribution: PubChem BioAssay (NCI)

- Tested on: MDA-MB-231 breast
- Protocol description: NCI-60 one-dose screen, 48 h (100 = growth as untreated, 0 = no growth, -100 = all killed)
- Study conditions: 10 µM unless noted
- Protocol: Cells are grown in 96 well plates and exposed to the test compound for 48 hours. Compounds are tested at a single concentration, which is 10^-5 M for most compounds. The reported endpoint is percent growth (GI% or GIPRCNT), where numbers from 0 - 100% represent growth inhibition, and numbers from -100% - 0 represent cell death. For example, a value of 40 represents 60% growth inhibition. A value of 0 means no net growth occurred over the course of the experiment. […]
This is part of a sample that, as a whole, favours compounds with a hit. Of some 83,000 tested, about 20% had one in any assay.
Would you kindly list growth for each of these compounds?
Answers are plain numbers, in %.

Solved entries:
COc1ccc(C(=O)c2cc3c(N)c(C(=O)Nc4cccc(Cl)c4C)sc3nc2C)cc1 = 15
Clc1ccc(C2CC(c3cccc(Nc4ccncc4)c3)=NN2c2cc(Cl)cc(Cl)c2)cc1 (stereo not given) = 71.5
CCOc1ccc(/C=N/Nc2cc(C)nc3ccc(Cl)cc23)cc1 = 43
CCCNC(=O)Oc1ccc(/C(=C(\C)c2ccccc2)c2ccc(OCCN3CCCCC3)cc2)cc1 = 81.9

Okay, now this compound:
Please supply the value of reported growth for the item CC(=O)c1c[nH]c2ccc(-c3ccnc(Nc4ccc(NC(=O)C5CCCC5)c(CN5CCOCC5)c4)n3)cc12
-8.4
